Assay: Mouse pharmacokinetics study, 50 mg/kg oral gavage, plasma LC-MS/MS
Format: in vivo
Settings: male C57BL/6 mice, non-fasted
# T-1/2 listing for each entry below

Molecule | Output Unit | T-1/2
Cc1cc(COc2ccc(C(F)(F)F)cc2C)cc(C(=O)O)c1 [Compound 4-11] | h | 3.6
O=C(O)c1cccc(COc2ccc(Cl)cc2Cl)c1 [Compound 1-18] | h | 4.2
O=C(O)c1cccc(COc2ccc(C(F)(F)F)cc2Cl)c1F [Compound 1-55] | h | 11.2
O=C(O)c1cccc(COc2ccc(C(F)(F)F)cc2Cl)n1 [Compound 1-56] | h | 3.2
O=C(O)c1cccc(COc2ccc(Cl)cc2Cl)n1 [Compound 1-115] | h | 3.0
O=C(O)c1cccc(COc2ccc(C(F)(F)F)cc2Cl)c1 [Compound 1-29] | h | 4.6
O=C(O)c1cccc(COc2ccc(Cl)c(Cl)c2Cl)c1 [Compound 1-78] | h | 4.0
O=C(O)c1cccc(COc2ccc(Cl)cc2Cl)c1F [Compound 4-1] | h | 5.9
O=C(O)c1cc(F)cc(COc2ccc(C(F)(F)F)cc2Cl)c1 [Compound 1-65] | h | 4.8
CCc1cc(COc2ccc(C(F)(F)F)cc2Cl)nc(C(=O)O)c1 [Compound 42-3] | h | 5.4
O=C(O)c1cc(COc2ccc(C(F)(F)F)cc2Cl)ccc1F [Compound 1-85] | h | 4.7
Cc1cc(COc2ccc(C(F)(F)F)cc2Cl)cc(C(=O)O)c1 [Compound 4-10] | h | 4.6

---

Biological target: MRGPRX4 (Homo sapiens)
Assay: MRGPR X4 antagonist activity, IP-One Gq HTRF assay in stably transfected HEK cells (versus agonist bilirubin, deoxycholic acid, conjugated bilirubin, urobilin, obeticholic acid or BAR502)
Assay type: cell-based
Parameters: expressed in transfected cells; host or cells: HEK cells, stably transfected
Details: versus 10 μM Bilirubin agonist; HEK cells expressing human MRGPR X4; read-out: MRGPR4 Antagonist Activity
The compounds listed here are annotated with their IC50.

Compound | IC50
O=C(O)c1ccc(COc2ccc(Cl)cc2Cl)s1 | 500 to 1000 nM
FC(F)(F)c1ccc(OCc2ccc(-c3nnn[nH]3)cc2)c(Cl)c1 | 500 to 1000 nM
O=C(O)c1cc(COc2ccc(C(F)(F)F)cc2Cl)ccc1Cl | 100 to 500 nM
Cc1cc(OCc2cccc(C(=O)O)c2)ccc1C#N | 100 to 500 nM
COC1CCN(C(=O)c2cccc(COc3ccc(C(F)(F)F)cc3Cl)c2)CC1 | 1000 to 2500 nM
O=C(O)c1cc(COc2ccc(C(F)(F)F)c(Cl)c2)cc(C(F)(F)F)c1 | 100 to 500 nM
COC(=O)c1cccc(COc2ccc(Cl)cc2C(F)(F)F)c1 | 1000 to 2500 nM
CCc1cc(COc2ccc(Cl)c(Cl)c2Cl)nc(C(=O)O)c1 | < 100 nM
CC(C)c1ccc(OCc2cccc(C(=O)O)c2)cc1 | 500 to 1000 nM
O=C(c1cccc(COc2ccc(C(F)(F)F)cc2Cl)c1)N1CCCC(O)C1 (centres unmarked) | 500 to 1000 nM
O=C(O)c1cccc(CNc2ccc3ccccc3c2)c1 | 500 to 1000 nM
Cc1cc(C(F)(F)F)ccc1OCc1cccc(C(=O)O)n1 | < 100 nM
COC(=O)c1cccc(COc2cccc(F)c2)c1 | 100 to 500 nM
O=C(O)c1cc(COc2ccc(C(F)(F)F)cc2Cl)ccc1F | < 100 nM
O=C(O)c1cccc(COc2ccc(C(F)(F)F)cc2)c1F | < 100 nM
CN(C)c1cc(COc2ccc(C(F)(F)F)cc2Cl)cc(C(=O)O)c1 | 100 to 500 nM
COC(=O)c1cccc(COc2ccc(C(F)(F)F)cc2Cl)n1 | < 100 nM
O=C(O)c1cccc(COc2cccc(C(F)(F)F)c2)c1 | 1000 to 2500 nM
FC(F)(F)Oc1ccc(OCc2cccc(-c3nnn[nH]3)c2)cc1Cl | < 100 nM
O=C(N[C@@H](Cc1c[nH]cn1)C(=O)O)c1cccc(COc2ccc(C(F)(F)F)cc2Cl)c1 | 500 to 1000 nM
CNCCNC(=O)c1cccc(COc2ccc(C(F)(F)F)cc2Cl)c1 | 500 to 1000 nM
COc1cc(C(=O)O)ccc1OCc1ccc(Cl)cc1 | 1000 to 2500 nM
N#CCc1ccccc1OCc1cccc(C(=O)O)c1 | > 2500 nM
O=C(O)c1cccc(COc2ccc(Cl)cc2C(F)(F)F)c1F | < 100 nM
O=C(O)c1cccc(COc2ccc3sccc3c2)c1 | 100 to 500 nM
O=C(O)c1cccc(COc2ccc(Cl)c(Cl)c2)c1 | 100 to 500 nM
O=C(O)c1cccc(COc2cccc3c2OC(F)(F)O3)c1 | > 2500 nM
O=C(O)c1cccc(COc2ccc3sccc3c2Cl)c1F | < 100 nM
O=C(O)c1cccc(COc2ccccc2F)c1 | 1000 to 2500 nM
O=C(O)c1cccc(COc2ccc3sccc3c2)c1F | 100 to 500 nM
O=C(O)c1cccc(COc2ccc(C(F)F)cc2)c1 | 100 to 500 nM
Clc1ccc(OCc2cccc(-c3nnn[nH]3)c2)c(Cl)c1Cl | < 100 nM
O=C(O)c1cccc(COc2ccc(C(F)(F)F)cc2Br)c1 | < 100 nM
O=C(N[C@H]1CC[C@H](O)CC1)c1cccc(COc2ccc(C(F)(F)F)cc2Cl)c1 | 500 to 1000 nM
O=C(c1ccc(COc2ccc(C(F)(F)F)cc2Cl)cc1)N1CC2(COC2)C1 | > 2500 nM
O=C(O)c1cccc(NC(=O)c2cccc(COc3ccc(C(F)(F)F)cc3Cl)c2)c1 | > 2500 nM
CC(=O)c1ccc(OCc2cccc(C(=O)O)c2)c(Cl)c1 | 1000 to 2500 nM
FC(F)(F)c1ccc(OCc2cccc(-c3ncc[nH]3)c2)c(Cl)c1 | 100 to 500 nM

---

Measured IC50 by item
Target: MRGPRX4 (Homo sapiens, UniProt Q96LA9)
Sequence (Q96LA9 whole entry): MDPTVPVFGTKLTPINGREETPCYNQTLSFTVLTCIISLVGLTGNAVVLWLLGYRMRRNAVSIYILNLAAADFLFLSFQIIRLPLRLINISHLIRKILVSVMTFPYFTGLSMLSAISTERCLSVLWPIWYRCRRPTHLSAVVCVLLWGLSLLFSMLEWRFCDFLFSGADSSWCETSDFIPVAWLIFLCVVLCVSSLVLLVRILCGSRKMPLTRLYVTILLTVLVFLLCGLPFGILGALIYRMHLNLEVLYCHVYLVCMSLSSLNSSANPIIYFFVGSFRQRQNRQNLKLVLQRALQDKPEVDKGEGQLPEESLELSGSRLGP
Experiment: MRGPR X4 antagonist activity, IP-One Gq HTRF assay in stably transfected HEK cells (versus agonist bilirubin, deoxycholic acid, conjugated bilirubin, urobilin, obeticholic acid or BAR502)
Format: cell-based
Design: expressed in transfected cells; host or cells: HEK cells, stably transfected
Conditions: versus 20 μM obeticholic acid; read-out: IC50 (Obeticholic Acid Agonist)

Compound String | Output Unit | IC50
O=C(O)c1cccc(COc2ccc(C(F)(F)F)cc2Cl)c1 | nM | 25
O=C(O)c1cccc(COc2ccc(Cl)c(Cl)c2Cl)c1 | nM | 21
Cc1cc(COc2ccc(C(F)(F)F)cc2Cl)cc(C(=O)O)c1 | nM | 15
Cc1cc(COc2ccc(C(F)(F)F)cc2C)cc(C(=O)O)c1 | nM | 25
O=C(O)c1cccc(COc2ccc(Cl)cc2Cl)c1 | nM | 40

---

Molecular target: MRGPRX4 (Homo sapiens, UniProt Q96LA9)
Assay: MRGPR X4 antagonist activity, IP-One Gq HTRF assay in stably transfected HEK cells (versus agonist bilirubin, deoxycholic acid, conjugated bilirubin, urobilin, obeticholic acid or BAR502)
Type: cell-based
Set-up: expressed in transfected cells; host or cells: HEK cells, stably transfected
Conditions: versus 10 μM Bilirubin agonist; HEK cells expressing human MRGPR X4; read-out: MRGPR4 Antagonist Activity
pIC50: −log10 of the molar value.
pIC50 reference
Property Label: pIC50

Compound String | Endpoint Result
O=C(O)c1cccc(CNc2ccc(Cl)cc2Cl)c1 | 6.30 to 7.00
O=C(N[C@@H](Cc1c[nH]c2ccccc12)C(=O)O)c1cccc(COc2ccc(C(F)(F)F)cc2Cl)c1 | 6.30 to 7.00
FC(F)(F)c1ccc(OCc2cccc(-c3nnn[nH]3)n2)c(Cl)c1 | > 7.00
O=C(O)c1cccc(COc2ccc3ccccc3c2)n1 | > 7.00
O=C(O)c1cccc(CNc2ccc(C(F)(F)F)cc2Cl)c1 | > 7.00
N#Cc1cccc(COc2ccc(Cl)cc2Cl)c1 | 6.00 to 6.30
O=C(NCc1ccccc1)c1cccc(COc2ccc(C(F)(F)F)cc2Cl)c1 | 6.30 to 7.00
O=C(O)c1cc(F)cc(COc2ccc3ccccc3c2)c1 | > 7.00
O=C(O)c1cccc(COc2ccc(C3CC3)cc2Cl)c1 | 6.30 to 7.00
Cc1cc(OCc2cccc(C(=O)O)c2)ccc1OC(F)(F)F | < 5.60

---

# maps each entry to its IC50
Target: MRGPRX4 (Homo sapiens, UniProt Q96LA9)
Assay: MRGPR X4 antagonist activity, IP-One Gq HTRF assay in stably transfected HEK cells (versus agonist bilirubin, deoxycholic acid, conjugated bilirubin, urobilin, obeticholic acid or BAR502)
Assay type: cell-based
Design: expressed in transfected cells; host or cells: HEK cells, stably transfected
Conditions: versus 10 μM Bilirubin agonist; HEK cells expressing human MRGPR X4; read-out: MRGPR4 Antagonist Activity
Property Label: IC50

Compound String | Endpoint Result
Cc1cc(Cl)cc(Cl)c1OCc1cccc(C(=O)O)c1 | 1 to 2.5 µM
Cc1cc(OCc2cccc(C(=O)O)c2)cc(C)c1Cl | 0.5 to 1 µM
O=C(O)c1cc(F)cc(COc2ccc(OC(F)(F)F)cc2Cl)c1 | 0.1 to 0.5 µM
O=C(O)c1ccc(COc2ccc(Cl)cc2Cl)cc1 | 0.5 to 1 µM
COCCNC(=O)c1cccc(COc2ccc(C(F)(F)F)cc2Cl)c1 | 0.5 to 1 µM
CCOc1ccc(OCc2cccc(C(=O)O)c2)cc1 | 1 to 2.5 µM
FC(F)(F)Oc1ccc(OCc2cccc(-c3nnn[nH]3)c2)c(Cl)c1 | < 0.1 µM
CC(C)NC(=O)c1cccc(COc2ccc(C(F)(F)F)cc2Cl)c1 | 0.1 to 0.5 µM
O=C(O)c1cccc(COc2ccc3ccncc3c2)c1 | 0.5 to 1 µM
O=C(O)c1cccc(COc2ccc3ccsc3c2)c1 | 0.1 to 0.5 µM
O=C(O)c1cccc(COc2ccc(Cl)c(F)c2)c1 | < 0.1 µM
O=C(Nc1ccccc1)c1cccc(COc2ccc(C(F)(F)F)cc2Cl)c1 | 0.1 to 0.5 µM
FC(F)(F)c1ccc(OCc2cccc(-c3cn[nH]n3)c2)c(Cl)c1 | 1 to 2.5 µM
COC(=O)c1cccc(COc2ccc(N3CCOCC3)cc2)c1 | 1 to 2.5 µM
O=C(O)c1cccc(COc2ccc(Cl)cc2F)c1 | 0.5 to 1 µM
O=C(O)c1cc(F)cc(COc2ccc(Cl)c(Cl)c2Cl)c1 | < 0.1 µM
Fc1cc(COc2ccc(C(F)(F)F)cc2Cl)cc(-c2nnn[nH]2)c1 | < 0.1 µM
O=C(O)c1cccc(COc2ccc(Cl)cc2C(F)(F)F)n1 | < 0.1 µM
O=C(O)c1cccc(Oc2ccc([N+](=O)[O-])cc2Cl)c1 | > 2.5 µM
O=C(O)c1cccc(COc2ccc(C(F)F)cc2Cl)c1 | < 0.1 µM
N#Cc1cc(COc2ccc(Cl)cc2Cl)cc(C(=O)O)c1 | < 0.1 µM
NCCNC(=O)c1cccc(COc2ccc(C(F)(F)F)cc2Cl)c1 | 1 to 2.5 µM
O=C(O)c1cc(COc2ccc(Cl)cc2Cl)ccc1Cl | 0.5 to 1 µM
O=C(O)c1cccc(COc2ccccc2C(F)(F)F)c1 | 1 to 2.5 µM
N#Cc1cc(COc2ccc(C(F)(F)F)cc2Cl)cc(C(=O)O)c1 | < 0.1 µM
O=C(NCCS(=O)(=O)O)c1ccc(COc2ccc(C(F)(F)F)cc2Cl)cc1 | 0.1 to 0.5 µM
COC(=O)c1cccc(COc2ccc(Cl)cc2Cl)c1 | > 2.5 µM
O=C(O)c1cccc(COc2ccc(F)cc2Cl)c1 | > 2.5 µM
O=C(O)c1cccc(COc2cccc(Br)c2Cl)c1 | 0.1 to 0.5 µM
NCc1cccc(COc2ccc(Cl)cc2Cl)c1 | 0.1 to 0.5 µM
